B1: TRIM39 (parent)
chain: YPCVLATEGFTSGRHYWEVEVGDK

Variants of: B1
Experiment: protein stability index of a GFP-peptide fusion (GPS, HEK-293T) (PSI 1-6); higher = more stable;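 note: lentivirally expressed fusions sorted by FACS into six bins by GFP to DsRed ratio, PSI derived from sequencing read proportions per bin multiplied by bin number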
Conditions: c terminus: a fixed tail appended
YES means recorded protein stability index is 2 or above; NO means it is below 2.

Inquiry: Answer whether protein stability index of K24C is greater than or equal to 2.
Reply text: YES

Inquiry: Moving on to T11M
Reply text: NO

Inquiry: Moving on to G22F
Reply text: NO

Inquiry: Moving on to V4H
Reply text: NO

Inquiry: Moving on to H15K
Reply text: YES

Inquiry: Moving on to C3T
Reply text: NO
